All values here come from paper PMC7819943.

# TARGET_ENTITY: OsWRKY34 (Oryza sativa, UniProt Q0JBA9 1-250)
# Sequence (Q0JBA9 entry or part of it): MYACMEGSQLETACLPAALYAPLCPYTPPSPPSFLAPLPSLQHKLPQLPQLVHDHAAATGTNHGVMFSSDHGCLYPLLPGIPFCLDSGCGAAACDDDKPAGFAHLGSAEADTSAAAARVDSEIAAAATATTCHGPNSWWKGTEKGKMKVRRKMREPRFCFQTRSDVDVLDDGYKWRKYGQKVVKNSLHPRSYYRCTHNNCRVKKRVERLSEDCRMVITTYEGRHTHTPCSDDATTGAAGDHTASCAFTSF
# PROTOCOL_DESCRIPTION: protein-binding microarray (RPBM); PBS, 2% BSA, 51.3 ng/ul salmon testes DNA, 50 uM zinc acetate, 200 nM TF, 25 C, 1 h; high values mean tight binding
# CONDITION_CONTEXT: protein: recombinant; tags: N-terminal polyhistidine and DsRed monomer fusion (pET32a); label: CyDye5-dUTP incorporated in the synthesized complementary strand; 3' TTTTT single-stranded linker to array surface; dsDNA, one strand shown
Over roughly 68,000 sequences, “fluorescence intensity (a.u.)” has its median near 9,100; the highest 2% begin near 16,000. The sample as a whole holds a higher share of the highest values than the screen did.
TEST_READOUT: binding signal

{"columns": ["BIOSEQUENCE", "MEASURED_RESULT"],
 "data": [
  ["CTCTCTCTGTTTCGGCCTCTCATACTCACTCCTCGGCTTCCGGAGTCACCTAGTGCAG", "11100 fluorescence intensity (a.u.)"],
  ["ATAGTACGAATGGTTAGCCCAAAAGTCAGTGTCTTCATTCCGGAGTCACCTAGTGCAG", "10300 fluorescence intensity (a.u.)"],
  ["ACGTTAGTTAAAAAGTCAACGGCGTCATCCATTAAAATACCGGAGTCACCTAGTGCAG", "8900 fluorescence intensity (a.u.)"],
  ["TGTGTGCCTGTTGTCTCATTTGATCTGCCATTTCAGCGCACGGAGTCACCTAGTGCAG", "10700 fluorescence intensity (a.u.)"],
  ["TTTGTTCTCTTTTATATGTAACACTTGCATATTTACCTTCCGGAGTCACCTAGTGCAG", "8980 fluorescence intensity (a.u.)"],
  ["TCATCAATGTCGACTTCTGTTTTGAAGTCGCTTTTTCATCCGGAGTCACCTAGTGCAG", "9100 fluorescence intensity (a.u.)"],
  ["CCCATGTTTTTTTTTCATATTTTGCAATCTTCGGTTTAAACGGAGTCACCTAGTGCAG", "8520 fluorescence intensity (a.u.)"],
  ["TCTCGCTCCTCATGCTCCTCTCCCGGCGGCGACGCTATGCCGGAGTCACCTAGTGCAG", "8080 fluorescence intensity (a.u.)"],
  ["GAAGAGCCGGCTCGTTCCTCTCCTTCCCGTTCACATTTCACGGAGTCACCTAGTGCAG", "8260 fluorescence intensity (a.u.)"]
]}

====

# TARGET_ENTITY: OsWRKY34 (Oryza sativa, UniProt Q0JBA9 1-250)
# PROTOCOL_DESCRIPTION: protein-binding microarray (RPBM); PBS, 2% BSA, 51.3 ng/ul salmon testes DNA, 50 uM zinc acetate, 200 nM TF, 25 C, 1 h; high values mean tight binding
# CONDITION_CONTEXT: protein: recombinant; tags: N-terminal polyhistidine and DsRed monomer fusion (pET32a); label: CyDye5-dUTP incorporated in the synthesized complementary strand; 3' TTTTT single-stranded linker to array surface; dsDNA, one strand shown
In all, about 68,000 sequences were measured (“fluorescence intensity (a.u.)”: median about 9,100, highest 2% from about 16,000 on). The sample as a whole holds a higher share of the highest values than the screen did.
This section presents sequences with their documented binding signal values.

{"columns": ["BIOSEQUENCE", "binding signal"],
 "data": [
  ["CCTTTTGTCAGTCTAGCCAAAGATCTAGGATCTTCAACACCGGAGTCACCTAGTGCAG", "8100 fluorescence intensity (a.u.)"],
  ["AAATATTTGACCGTTCGTTTATTATTTTTATTTTTTTTACCGGAGTCACCTAGTGCAG", "12200 fluorescence intensity (a.u.)"],
  ["GTTTCATTGAGATGGTGTCGACGTGGCGGCGTTGACTTAGCGGAGTCACCTAGTGCAG", "10700 fluorescence intensity (a.u.)"],
  ["TGTGGATGAGTGTGTGTGTGTGGAGATCAGTGGGAGACCACGGAGTCACCTAGTGCAG", "8170 fluorescence intensity (a.u.)"],
  ["TCGCAAGAGTTGTTGAAAGTTGACCAGCATATTGAGGCCCCGGAGTCACCTAGTGCAG", "8130 fluorescence intensity (a.u.)"],
  ["ATGGGTTGGGACTGTCCTGGTGCGCGATTACTAACGTGGACGGAGTCACCTAGTGCAG", "8790 fluorescence intensity (a.u.)"],
  ["CACTAGGTGAGCAATTTTGTTACCACGTCCATGTGCTGATCGGAGTCACCTAGTGCAG", "8810 fluorescence intensity (a.u.)"],
  ["TGTTGTTGTGGTGGTGGTGGTGGTGGTAGTGCGTGAGTGACGGAGTCACCTAGTGCAG", "21200 fluorescence intensity (a.u.)"],
  ["GATTTAGTTTTAGTTTTTGTTTTTTTCCCACTTGGTTCTTCGGAGTCACCTAGTGCAG", "9450 fluorescence intensity (a.u.)"],
  ["TTGGTGGGCCGTTATTTTGTTTGGGCTGGATTTGCACGTTCGGAGTCACCTAGTGCAG", "11700 fluorescence intensity (a.u.)"],
  ["TTTTTTTGTGTTTTGCAATTTTATGTTTTGCACTTATTTTCGGAGTCACCTAGTGCAG", "8070 fluorescence intensity (a.u.)"],
  ["AACATCTGCCTGCTCACTAAAATGATCTACCGGCTTTTTTCGGAGTCACCTAGTGCAG", "8620 fluorescence intensity (a.u.)"],
  ["CACGTCGCCTCGTTTCTTGCCTCGCCGCTCGTCACTCGGCCGGAGTCACCTAGTGCAG", "9810 fluorescence intensity (a.u.)"],
  ["CACTCTGCAGCTCTGCTCGTTTTGCACACGGGTGACTCGTCGGAGTCACCTAGTGCAG", "9700 fluorescence intensity (a.u.)"],
  ["AAAAACGTCTCAATTGTAAGCTCACTATCTAACAATTTTCCGGAGTCACCTAGTGCAG", "11200 fluorescence intensity (a.u.)"],
  ["GGGTGAGTGTGTGTTGTGCGTTGTGAGTGTGTATGTGTTTCGGAGTCACCTAGTGCAG", "17200 fluorescence intensity (a.u.)"],
  ["GTGGGTGTTTGCGAGCTTTTGTTCGTATGCTTTTTTACTTCGGAGTCACCTAGTGCAG", "9960 fluorescence intensity (a.u.)"],
  ["GATTGACTTGCCAAACATTTTACATGCGTTTATTGTACCACGGAGTCACCTAGTGCAG", "9920 fluorescence intensity (a.u.)"],
  ["CCCGGCGTCCTCCTGCTTCCCACCGCATCGTCGCTCGCCGCGGAGTCACCTAGTGCAG", "8120 fluorescence intensity (a.u.)"],
  ["GAGGTGTGTGTTCGTAGAGATGAGTGCGTGCGCGTTGTGACGGAGTCACCTAGTGCAG", "9140 fluorescence intensity (a.u.)"],
  ["TTTCGGCCCACATTCCTATCCGTTTTTGCTCGGGTGGGCTCGGAGTCACCTAGTGCAG", "10900 fluorescence intensity (a.u.)"],
  ["TTGACATAAATTTTCAACCAACCCGTTGTTTTTGTTTTACCGGAGTCACCTAGTGCAG", "9250 fluorescence intensity (a.u.)"],
  ["TCCATCGCGCGTCGTCTCCACCTTTGTTGCTTGTGCCACCCGGAGTCACCTAGTGCAG", "10200 fluorescence intensity (a.u.)"],
  ["GTCATACCACCTTACTTTTTACGTTTGAATCACCATTCTACGGAGTCACCTAGTGCAG", "10900 fluorescence intensity (a.u.)"],
  ["ATTTCGGATTTGTATGTATTGTGTTTTTTTAAAAAAAATTCGGAGTCACCTAGTGCAG", "9880 fluorescence intensity (a.u.)"],
  ["GCAATTGTTCAATATTTTTTTGTGTGTATGTGTTTTTTTTCGGAGTCACCTAGTGCAG", "18200 fluorescence intensity (a.u.)"],
  ["CATCCGATTCCTATGTATTTCTTGCGGTCTAATCAAACGACGGAGTCACCTAGTGCAG", "10200 fluorescence intensity (a.u.)"],
  ["TTACTATACTATTAATATCTGATCACACCTGTCATACACACGGAGTCACCTAGTGCAG", "9710 fluorescence intensity (a.u.)"],
  ["CTCATCCGATTCCTGCGTTTTTCCTGCGCTCCAATCAAACCGGAGTCACCTAGTGCAG", "9990 fluorescence intensity (a.u.)"],
  ["GCTATACATCTTTCCACTACTTCTCCTCAGCTCGCTTTCCCGGAGTCACCTAGTGCAG", "8130 fluorescence intensity (a.u.)"],
  ["GCCTCGTCCACTCCACCACGCCGCCGAAAGCCGCAACTCTCGGAGTCACCTAGTGCAG", "9580 fluorescence intensity (a.u.)"],
  ["CTCGACCACACATATATGTTCGATACATTCCATATCTTCCCGGAGTCACCTAGTGCAG", "10700 fluorescence intensity (a.u.)"],
  ["ATGGCGTTTGGGTTTGGCTCGGGTTGATCTGGATAAGGGACGGAGTCACCTAGTGCAG", "9020 fluorescence intensity (a.u.)"],
  ["CGGGGAGGAGGGAGGAATAAATACGTCCTAGTCGATCAGCCGGAGTCACCTAGTGCAG", "8150 fluorescence intensity (a.u.)"],
  ["GACTATGCGCGCTATATAAAGGATCACATTATCTCATACTCGGAGTCACCTAGTGCAG", "8930 fluorescence intensity (a.u.)"],
  ["GGGGTTTATTATTTTCCCGGGTTAAATTGCCACGTAAGCACGGAGTCACCTAGTGCAG", "10100 fluorescence intensity (a.u.)"],
  ["TTTTCTCTGTTTACTTTTTTTTTATTATTTTTTTGCGCCGCGGAGTCACCTAGTGCAG", "8240 fluorescence intensity (a.u.)"]
]}
